# MEASUREMENT TARGET: β-gal I (Bifidobacterium breve)
# Construct: full length, C-terminal His6 tag kept (pET-21a), E. coli T7 Express with GroEL/GroES, IMAC; calculated 116,127 Da; homodimer 220 kDa; GH2; N-terminus from primer MQGKAKT, C-terminus before tag DVTLELI
# Sequence (D4BLG2 entry or part of it): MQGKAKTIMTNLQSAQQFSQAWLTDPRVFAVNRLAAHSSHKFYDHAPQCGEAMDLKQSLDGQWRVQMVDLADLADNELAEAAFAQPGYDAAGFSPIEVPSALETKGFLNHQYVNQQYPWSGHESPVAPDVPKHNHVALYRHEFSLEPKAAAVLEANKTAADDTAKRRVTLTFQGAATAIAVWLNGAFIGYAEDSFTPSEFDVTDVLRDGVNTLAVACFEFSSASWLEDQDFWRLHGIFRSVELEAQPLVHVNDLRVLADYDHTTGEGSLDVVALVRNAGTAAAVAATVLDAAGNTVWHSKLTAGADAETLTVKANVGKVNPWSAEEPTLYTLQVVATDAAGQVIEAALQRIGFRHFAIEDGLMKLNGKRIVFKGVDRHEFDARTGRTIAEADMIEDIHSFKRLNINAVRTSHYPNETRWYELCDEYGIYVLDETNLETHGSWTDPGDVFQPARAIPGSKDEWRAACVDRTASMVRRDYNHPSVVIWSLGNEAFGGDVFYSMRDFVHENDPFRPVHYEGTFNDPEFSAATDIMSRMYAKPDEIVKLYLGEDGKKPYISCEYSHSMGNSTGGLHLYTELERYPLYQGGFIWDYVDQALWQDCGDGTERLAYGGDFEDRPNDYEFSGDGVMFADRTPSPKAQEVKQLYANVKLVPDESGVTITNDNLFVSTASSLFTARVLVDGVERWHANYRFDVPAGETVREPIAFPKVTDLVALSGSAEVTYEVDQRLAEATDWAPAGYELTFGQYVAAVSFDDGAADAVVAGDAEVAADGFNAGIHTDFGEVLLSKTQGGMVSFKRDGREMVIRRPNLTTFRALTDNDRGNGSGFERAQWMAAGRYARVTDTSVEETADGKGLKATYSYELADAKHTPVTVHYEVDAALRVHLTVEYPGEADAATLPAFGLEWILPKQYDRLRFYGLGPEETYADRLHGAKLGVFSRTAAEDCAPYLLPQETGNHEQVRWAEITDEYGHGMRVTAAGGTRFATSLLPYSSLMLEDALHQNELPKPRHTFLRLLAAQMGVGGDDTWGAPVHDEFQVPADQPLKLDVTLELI
# TEST PROTOCOL: oNPG hydrolysis, o-nitrophenol release at […] nm, nonlinear regression
# CONDITION CONTEXT: competitive vs oNPG; 50 mM sodium phosphate pH 6.5, 30°C

COMPOUND: OC[C@H]1OC(O)[C@H](O)[C@@H](O)[C@H]1O (stereo partly shown)
MEASUREMENT TARGET: β-gal I (Bifidobacterium breve)
Ki, mM: 15
